The compounds listed here are annotated with their Emax.
# Assayed system: PPAR Alpha (Homo sapiens, UniProt Q07869)
# Sequence (Q07869 whole entry): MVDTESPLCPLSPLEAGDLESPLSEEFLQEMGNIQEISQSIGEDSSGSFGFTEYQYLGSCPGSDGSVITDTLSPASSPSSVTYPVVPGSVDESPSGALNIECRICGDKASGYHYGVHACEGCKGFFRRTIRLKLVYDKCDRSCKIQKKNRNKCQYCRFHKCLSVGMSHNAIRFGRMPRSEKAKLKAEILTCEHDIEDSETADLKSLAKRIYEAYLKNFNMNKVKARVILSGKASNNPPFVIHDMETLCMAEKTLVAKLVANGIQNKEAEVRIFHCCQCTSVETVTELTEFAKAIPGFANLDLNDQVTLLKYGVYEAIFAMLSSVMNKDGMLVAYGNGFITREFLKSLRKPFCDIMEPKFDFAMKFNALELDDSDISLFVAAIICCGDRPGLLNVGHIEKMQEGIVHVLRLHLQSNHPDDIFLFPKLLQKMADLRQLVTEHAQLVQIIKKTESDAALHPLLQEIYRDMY
# Measurement protocol: PathHunter NHR protein interaction / nuclear translocation agonist test, PPAR Alpha
# Assay type: cell-based
# Condition info: read-out: PPAR Alpha Maximum Activation Response %

Compound	Emax
CSc1ccc(C(=O)C2CN(C(=O)OC(C)C)CC2CCc2cc(C)c(OC(C)(C)C(=O)O)c(C)c2)cc1 (single isomer, unassigned) [Compound 58]	80 to 100%
CSc1ccc(C(=O)C2CN(C(=O)Oc3ccccc3)CC2CCc2ccc(OC(C)(C)C(=O)O)c(F)c2)cc1 (single isomer, unassigned) [Compound 82]	80 to 100%
Cc1cc(CC[C@H]2CN(C(=O)Oc3ccccc3)C[C@@H]2C(=O)c2ccc([S+](C)[O-])cc2)cc(C)c1OC(C)(C)C(=O)O (mixture of isomers) [Compound 67]	80 to 100%

Cited source: patent US10526320B2
